- testedSystem: human Yes1 enzyme (Homo sapiens)
- Construct: made in house
- testSummary: Yes1 enzyme inhibitory activity (time-resolved fluorometry, biotinylated peptide phosphorylation)
- Format: biochemical
- conditionInfo: biotinylated peptide phosphorylation, read-out: YES_IC50
Examples of compounds with documented pIC50 follow.
Keep in mind that pIC50 stands for -log10 of concentration in molar terms.

Please review the following examples before continuing.
# compound, reading
measured = [
    ("Cc1cc(Oc2cccc(F)c2F)ncc1-n1ncc(C(=O)c2cc3cc(Cl)c(NS(C)(=O)=O)cc3[nH]2)c1N [Example 4-2-087]", 8.57),
    ("Cc1cc(Oc2c(F)cccc2F)ncc1-n1ncc(C(=O)c2cc3cc(F)c(NS(=O)(=O)c4cc(F)cc(F)c4)cc3[nH]2)c1N [Example 5-1-563]", 7.77),
]

Prompt: Complete the entry with pIC50 for Cc1cc(Oc2ccccc2F)cc(F)c1-n1ncc(C(=O)c2cc3cc(OC(F)F)c(NS(=O)(=O)CCCF)cc3[nH]2)c1N [Example 4-24-006]
Response: 8.35

---

Below, each of the compounds is paired with its reported pIC50 value.
- testedSystem: human Yes1 enzyme (Homo sapiens, UniProt P07947)
- Construct: made in house
- Sequence (P07947 whole entry): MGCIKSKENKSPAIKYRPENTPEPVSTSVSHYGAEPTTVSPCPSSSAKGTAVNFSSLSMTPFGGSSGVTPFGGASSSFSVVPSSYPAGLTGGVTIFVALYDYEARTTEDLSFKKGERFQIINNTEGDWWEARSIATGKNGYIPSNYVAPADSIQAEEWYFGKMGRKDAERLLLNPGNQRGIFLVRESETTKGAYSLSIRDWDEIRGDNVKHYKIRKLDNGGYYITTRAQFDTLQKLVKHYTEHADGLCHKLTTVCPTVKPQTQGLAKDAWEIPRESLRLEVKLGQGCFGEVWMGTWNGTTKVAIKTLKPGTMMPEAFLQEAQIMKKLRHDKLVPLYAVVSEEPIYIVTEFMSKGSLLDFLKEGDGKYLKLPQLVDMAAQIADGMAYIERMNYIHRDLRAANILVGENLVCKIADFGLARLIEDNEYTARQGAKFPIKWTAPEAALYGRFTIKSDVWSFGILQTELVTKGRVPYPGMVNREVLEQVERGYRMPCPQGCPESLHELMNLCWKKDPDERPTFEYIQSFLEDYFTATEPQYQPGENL
- testSummary: Yes1 enzyme inhibitory activity (time-resolved fluorometry, biotinylated peptide phosphorylation)
- Format: biochemical
- conditionInfo: biotinylated peptide phosphorylation, read-out: YES_IC50
Kindly note that pIC50 refers to -log10 of the concentration in mol/L and answer with the value alone.

# annotated cases, reported pIC50 shown
# recordSmiles, reading
records = [
    ("Cc1cc(Oc2ccccc2F)ccc1-n1ncc(C(=O)c2cc3cc(OC(F)F)c(NS(=O)(=O)CCCF)cc3[nH]2)c1N", 8.57),
    ("CCN(c1cc2[nH]c(C(=O)c3cnn(-c4cnc(Oc5c(F)cccc5F)cc4C)c3N)cc2cc1F)S(C)(=O)=O", 8.89),
    ("Cc1cc(Oc2ccccc2F)ccc1-n1ncc(C(=O)c2cc3cc(OCC(F)F)c(NC4COC4)cc3[nH]2)c1N", 9.03),
    ("Cc1cc(Oc2ccccc2F)ccc1-n1ncc(C(=O)c2cc3cc(F)c(NS(=O)(=O)c4cncc(Cl)c4)cc3[nH]2)c1N", 8.44),
    ("Cc1cc(Oc2ccccc2F)ccc1-n1ncc(C(=O)c2cc3cc(F)c(NS(N)(=O)=O)cc3[nH]2)c1N", 9.19),
]

Prompt: Enter pIC50 (test system human Yes1 enzyme (Homo sapiens, UniProt P07947)) for Cc1cc2cc(C(=O)c3cnn(-c4ccc(Oc5ccccc5F)cc4C)c3N)[nH]c2cc1N1C(=O)N[C@@H](Cc2ccccc2)C1=O
Response: 8.64

Prompt: Under human Yes1 enzyme (Homo sapiens, UniProt P07947): report pIC50 of Cc1cc(Oc2c(F)cccc2F)ncc1-n1ncc(C(=O)c2cc3cc(OCC(F)F)c(NC4COC4)cc3[nH]2)c1N .
Response: 8.48

Prompt: Using human Yes1 enzyme (Homo sapiens, UniProt P07947) as the test system, report measured pIC50 of Cc1cc(Oc2ccccc2F)ccc1-n1ncc(C(=O)c2cc3cc(OC(F)F)c(N4CCN(S(C)(=O)=O)CC4)cc3[nH]2)c1N .
Response: 8.80

Prompt: Print human Yes1 enzyme (Homo sapiens, UniProt P07947) pIC50 for Cc1cc2cc(C(=O)c3cnn(-c4cnc(Oc5ccccc5F)cc4C)c3N)[nH]c2cc1NS(=O)(=O)CCCF .
Response: 8.74

Prompt: Provide pIC50, tested on human Yes1 enzyme (Homo sapiens, UniProt P07947), for Cc1cc(Oc2c(F)cccc2F)ncc1-n1ncc(C(=O)c2cc3cc(OC(F)F)c(NS(=O)(=O)CCCF)cc3[nH]2)c1N .
Response: 8.40

Prompt: Write down measured pIC50 (human Yes1 enzyme (Homo sapiens, UniProt P07947)) for this compound. Cc1cc2cc(C(=O)c3cnn(-c4cnc(Oc5c(F)cccc5F)cc4C)c3N)[nH]c2cc1NS(=O)(=O)CCCF
Response: 8.51

Prompt: Report pIC50 from human Yes1 enzyme (Homo sapiens, UniProt P07947) testing of COc1cc2cc(C(=O)c3cnn(-c4c(C)cc(Oc5ccccc5F)cc4F)c3N)[nH]c2cc1NS(C)(=O)=O
Response: 8.74

Prompt: Retrieve pIC50 on human Yes1 enzyme (Homo sapiens, UniProt P07947); query Cc1cc2cc(C(=O)c3cnn(-c4cnc(Oc5ccccc5F)cc4C)c3N)[nH]c2cc1NS(C)(=O)=O
Response: 9.28

Prompt: Param request: pIC50 | system human Yes1 enzyme (Homo sapiens, UniProt P07947) | item Cc1cc(-n2ncc(C(=O)c3cc4cc(F)c(NS(=O)(=O)C5CCOCC5)cc4[nH]3)c2N)ccc1Oc1ccccc1F
Response: 8.28

Prompt: Report value: pIC50, system: human Yes1 enzyme (Homo sapiens, UniProt P07947), compound: Cc1cc(Oc2c(F)cccc2F)ncc1-n1ncc(C(=O)c2cc3cc(OC(F)F)c(N4C(=O)C(C)(C)NC4=S)cc3[nH]2)c1N
Response: 8.92
